System: OVCAR-4 ovarian
method.notes: NCI tumour cell line growth inhibition, 48 h
Below is a list of entries, each paired with its recorded TGI value.

Record excerpt, results attached:
compound: Cc1cc(S(=O)(=O)/N=C(\N)Nc2cccc(O)c2)c(SCc2ccccc2)cc1Cl
tested.on: OVCAR-4 ovarian
TGI: 45.1 µM

compound: O/N=C1/CCC/C1=C\c1ccccc1
tested.on: OVCAR-4 ovarian
TGI: > 100 µM

The compound listed as COc1cc(C2CC(C)(N3CCOCC3)Oc3cc4c(cc32)OCO4)cc(OC)c1OC (stereo not drawn) shows TGI equal to 8.65 µM

The compound listed as CCOC(=O)c1oc2c(OC)ccc3c2c1CCC3 shows TGI equal to > 100 µM

The compound listed as Cn1c(N/N=C/c2ccccc2)nc(-c2ccc3c(c2)OCO3)c(C#N)c1=O shows TGI equal to > 100 µM

The compound listed as C/C=C1\CC(C(=O)OCC)CCCCCCC1=O (stereo not drawn) shows TGI equal to > 100 µM

The compound listed as O=c1cc(-c2ccc(Cl)cc2)[nH]c2ccccc12 shows TGI equal to > 100 µM

The compound listed as Nc1n[n+]([O-])c2cc([N+](=O)[O-])ccc2[n+]1[O-] shows TGI equal to 10.2 µM

The compound listed as N#CCCN(CCC#N)c1ccc(/C=C(/NC(=O)c2cc([N+](=O)[O-])ccc2Cl)C(=O)N=[N+]=[N-])cc1 shows TGI equal to > 100 µM

The compound listed as Oc1ccc(NC(=S)Nc2ccccc2)cc1 shows TGI equal to > 100 µM

The compound listed as CC12Nc3ccccc3C1=C(c1ccccc1)CC1C(=O)OC(=O)C12 (stereo not drawn) shows TGI equal to > 100 µM
